The measured values listed here are drawn from ChEMBL document CHEMBL3351417.

# assayMethodText: Growth inhibition of human MKN45 cells after 48 hrs by sulforhodamine B colorimetric assay
# Type: functional
# conditionDetails: MKN-45, 48 h
endpoint: GI50

[[record]]
molecule = "CCCCCCCCCCCC[C@@H](O)[C@H]1CC[C@H]([C@H](O)CCCCCCCCCCCCC2=C[C@H](C)OC2=O)O1 [REL-SOLAMIN]"
endpoint = "GI50"
endpointresult = "> 100 µM"

[[record]]
molecule = "CCCCCCCCCCCC[C@@H](O)[C@H]1CC[C@H]([C@H](O)CCCCCCCCCCNC(=O)c2ccsc2)O1"
endpoint = "GI50"
endpointresult = "3.72 µM"

[[record]]
molecule = "CCCCCCCCCCCC[C@@H](O)[C@H]1CC[C@H]([C@H](O)CCCCCCCCCCNC(=O)c2ccoc2)O1"
endpoint = "GI50"
endpointresult = "> 100 µM"


Which GI50 reading was recorded for the molecule "CCCCCCCCCCCC[C@@H](O)[C@H]1CC[C@H]([C@H](O)CCCCCCCCCCNC(=O)c2cccs2)O1" ?
3.31 µM

Which GI50 reading was recorded for the molecule "CCCCCCCCCCCC[C@@H](O)[C@H]1CC[C@H]([C@H](O)CCCCCCCCCCNC(=O)c2cncs2)O1" ?
> 100 µM

Which GI50 reading was recorded for the molecule "CCCCCCCCCCCC[C@@H](O)[C@H]1CC[C@H]([C@H](O)CCCCCCCCCCNC(=O)c2ccco2)O1" ?
> 100 µM

----------
# System: HT-29
# assayMethodText: Growth inhibition of human HT-29 cells after 48 hrs by sulforhodamine B colorimetric assay
# Format: functional
# conditionDetails: HT-29, 48 h
endpoint: GI50

Example cases with answers are listed next.
[[record]]
smilesentry = "CCCCCCCCCCCC[C@@H](O)[C@H]1CC[C@H]([C@H](O)CCCCCCCCCCNC(=O)c2ccoc2)O1"
endpoint = "GI50"
endpointresult = "> 100 µM"

[[record]]
smilesentry = "CCCCCCCCCCCC[C@@H](O)[C@H]1CC[C@H]([C@H](O)CCCCCCCCCCNC(=O)c2ccsc2)O1"
endpoint = "GI50"
endpointresult = "1.91 µM"

[[record]]
smilesentry = "CCCCCCCCCCCC[C@@H](O)[C@H]1CC[C@H]([C@H](O)CCCCCCCCCCNC(=O)c2ccnn2C)O1"
endpoint = "GI50"
endpointresult = "> 100 µM"


Which GI50 reading was recorded for the molecule "CCCCCCCCCCCC[C@@H](O)[C@H]1CC[C@H]([C@H](O)CCCCCCCCCCNC(=O)c2ccco2)O1" ?
> 100 µM

Which GI50 reading was recorded for the molecule "CCCCCCCCCCCC[C@@H](O)[C@H]1CC[C@H]([C@H](O)CCCCCCCCCCNC(=O)c2cccs2)O1" ?
2.19 µM

Which GI50 reading was recorded for the molecule "CCCCCCCCCCCC[C@@H](O)[C@H]1CC[C@H]([C@H](O)CCCCCCCCCCCCC2=C[C@H](C)OC2=O)O1" ?
> 100 µM

Which GI50 reading was recorded for the molecule "CCCCCCCCCCCC[C@@H](O)[C@H]1CC[C@H]([C@H](O)CCCCCCCCCCNC(=O)c2cncs2)O1" ?
> 100 µM

----------
# Test system: ACHN
# assayMethodText: Growth inhibition of human ACHN cells after 48 hrs by sulforhodamine B colorimetric assay
# Format: functional
endpoint: GI50

Example cases with answers are listed next.
[[record]]
compound = "CCCCCCCCCCCC[C@@H](O)[C@H]1CC[C@H]([C@H](O)CCCCCCCCCCNC(=O)c2ccsc2)O1"
endpointresult = "3.89 µM"

[[record]]
compound = "CCCCCCCCCCCC[C@@H](O)[C@H]1CC[C@H]([C@H](O)CCCCCCCCCCCCC2=C[C@H](C)OC2=O)O1 [REL-SOLAMIN]"
endpointresult = "> 100 µM"

[[record]]
compound = "CCCCCCCCCCCC[C@@H](O)[C@H]1CC[C@H]([C@H](O)CCCCCCCCCCNC(=O)c2ccoc2)O1"
endpointresult = "> 100 µM"

[[record]]
compound = "CCCCCCCCCCCC[C@@H](O)[C@H]1CC[C@H]([C@H](O)CCCCCCCCCCNC(=O)c2cccs2)O1"
endpointresult = "2.57 µM"


Which GI50 reading was recorded for the compound "CCCCCCCCCCCC[C@@H](O)[C@H]1CC[C@H]([C@H](O)CCCCCCCCCCNC(=O)c2cncs2)O1" ?
> 100 µM

Which GI50 reading was recorded for the compound "CCCCCCCCCCCC[C@@H](O)[C@H]1CC[C@H]([C@H](O)CCCCCCCCCCNC(=O)c2ccco2)O1" ?
> 100 µM
